SYSTEM NAME: intracellular GCN2 (phosphorylation of the GCN2 substrate eIF2α) (Homo sapiens)
Sequence (Q9P2K8 whole entry): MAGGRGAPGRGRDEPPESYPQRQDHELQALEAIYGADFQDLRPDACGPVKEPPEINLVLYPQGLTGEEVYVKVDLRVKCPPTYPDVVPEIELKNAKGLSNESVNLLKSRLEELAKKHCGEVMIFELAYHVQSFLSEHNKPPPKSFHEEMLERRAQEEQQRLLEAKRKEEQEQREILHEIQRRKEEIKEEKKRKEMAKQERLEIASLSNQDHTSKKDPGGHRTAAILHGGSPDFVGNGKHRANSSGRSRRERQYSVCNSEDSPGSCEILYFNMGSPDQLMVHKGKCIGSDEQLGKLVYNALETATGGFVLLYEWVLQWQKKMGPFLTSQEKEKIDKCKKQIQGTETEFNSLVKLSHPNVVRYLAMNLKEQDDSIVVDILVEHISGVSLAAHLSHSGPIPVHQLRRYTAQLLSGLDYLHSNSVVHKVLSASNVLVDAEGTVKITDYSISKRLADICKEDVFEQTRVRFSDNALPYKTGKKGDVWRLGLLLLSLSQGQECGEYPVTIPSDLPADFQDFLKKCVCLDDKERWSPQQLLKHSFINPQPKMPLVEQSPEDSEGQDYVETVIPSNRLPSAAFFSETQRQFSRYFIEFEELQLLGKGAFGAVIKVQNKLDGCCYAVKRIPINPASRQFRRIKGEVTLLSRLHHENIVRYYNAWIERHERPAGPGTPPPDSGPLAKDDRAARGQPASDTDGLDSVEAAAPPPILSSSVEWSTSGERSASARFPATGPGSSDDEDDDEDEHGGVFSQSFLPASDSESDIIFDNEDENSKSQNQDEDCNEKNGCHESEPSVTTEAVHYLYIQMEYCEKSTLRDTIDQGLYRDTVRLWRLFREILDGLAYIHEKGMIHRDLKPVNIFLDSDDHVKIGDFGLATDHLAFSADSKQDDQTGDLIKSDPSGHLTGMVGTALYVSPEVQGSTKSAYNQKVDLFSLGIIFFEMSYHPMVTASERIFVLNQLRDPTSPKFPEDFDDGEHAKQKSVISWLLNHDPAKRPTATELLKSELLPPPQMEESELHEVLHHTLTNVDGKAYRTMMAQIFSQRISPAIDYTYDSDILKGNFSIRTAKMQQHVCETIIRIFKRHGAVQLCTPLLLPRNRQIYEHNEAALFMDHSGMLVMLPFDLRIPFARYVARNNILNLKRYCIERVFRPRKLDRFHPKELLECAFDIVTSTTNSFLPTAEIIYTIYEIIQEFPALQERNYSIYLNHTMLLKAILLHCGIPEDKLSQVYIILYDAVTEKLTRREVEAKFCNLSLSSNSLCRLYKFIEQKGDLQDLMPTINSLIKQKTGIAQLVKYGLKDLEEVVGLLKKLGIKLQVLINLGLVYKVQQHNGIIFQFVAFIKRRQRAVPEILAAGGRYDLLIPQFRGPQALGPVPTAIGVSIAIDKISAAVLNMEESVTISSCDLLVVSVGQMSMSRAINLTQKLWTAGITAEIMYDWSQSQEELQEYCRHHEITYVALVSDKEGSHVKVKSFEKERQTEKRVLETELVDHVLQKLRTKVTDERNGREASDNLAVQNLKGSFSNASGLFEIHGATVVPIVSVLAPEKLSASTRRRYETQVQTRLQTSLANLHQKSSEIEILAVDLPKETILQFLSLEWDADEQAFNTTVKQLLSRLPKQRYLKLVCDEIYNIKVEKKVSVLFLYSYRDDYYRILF
PROCEDURE SUMMARY: GCN2 cellular inhibition assay (AlphaScreen SureFire P-eIF2α Ser51, borrelidin-treated U2OS cells)
Assay type: cell-based
STATED CONDITIONS: compounds of Formula IV; biomarker assay, phosphorylated eIF2α Ser51 in borrelidin-treated U2OS cells
pIC50: −log10 of the molar value.
Item-by-item account of pIC50

Solved cases (6 shown):
MOLECULE	SYSTEM NAME	pIC50
CC1CN(c2ccnc(-c3cnc4cnc(Br)cn34)n2)C(C)C(c2cn[nH]c2)N1 (single isomer, unassigned) [IV-288]	intracellular GCN2 (phosphorylation of the GCN2 substrate eIF2α) (Homo sapiens)	> 6.30
FC(F)(F)c1cn2c(-c3nccc(N4CCCC(c5c[nH]c(Cl)n5)C4)n3)cnc2cn1 (stereo not shown)	intracellular GCN2 (phosphorylation of the GCN2 substrate eIF2α) (Homo sapiens)	5.30 to 6.30
CC1C(c2cn[nH]c2)NCCN1c1ccnc(-c2cnc3cnc(Br)cn23)n1 (single isomer, unassigned) [IV-350]	intracellular GCN2 (phosphorylation of the GCN2 substrate eIF2α) (Homo sapiens)	5.30 to 6.30
Fc1n[nH]cc1C1CCN(c2ccnc(-c3cnc4cnc(C(F)(F)F)cn34)n2)C1 (single isomer, unassigned) [IV-562]	intracellular GCN2 (phosphorylation of the GCN2 substrate eIF2α) (Homo sapiens)	> 6.30
CC(C)(C)OC(=O)N1CCC2CCN(c3ccnc(-c4cnc5cnc(C(F)F)cn45)n3)CC21 (stereo not shown)	intracellular GCN2 (phosphorylation of the GCN2 substrate eIF2α) (Homo sapiens)	< 5.30
CC1C(c2cn[nH]c2)NCCN1c1ccnc(-c2cnc3cnc(Cl)cn23)n1 (single isomer, unassigned)	intracellular GCN2 (phosphorylation of the GCN2 substrate eIF2α) (Homo sapiens)	5.30 to 6.30

Next molecule, pIC50 to be filled in.
Task: Return the recorded pIC50 value; entry: "O=C(c1cccc(-c2ccnc(-c3cnc4cnc(C(F)F)cn34)n2)c1)N1CCNCC1"
Output: < 5.30
